target: CB1 receptor (Homo sapiens); construct: expressed in transfected cells; assay: Binding assay for CB1 agonists or inverse agonists (SK-N-MC membranes, [3H]-CP-55,940); conditions: value shown is an average percent inhibition (footnote 5); concentration not given
assay metric: CB1 receptor binding average percent inhibition

molecule | measured result
CCOC(=O)[C@H]1C2C=CC(C2)[C@H]1NC(=O)c1nn(-c2ccc(Cl)cc2Cl)c2c1CCCCC2Cc1cccc(F)c1 (stereo partly drawn) | ^(5)37%
O=C(NC1CCC1)c1nn(-c2ccc(Cl)cc2Cl)c2c1CCCCC2Cc1ccc(F)cc1 (stereo not drawn) | ^(5)37%

----------
Target: CB1 receptor (Homo sapiens, UniProt P21554)
Construct: expressed in transfected cells
Sequence (P21554 whole entry): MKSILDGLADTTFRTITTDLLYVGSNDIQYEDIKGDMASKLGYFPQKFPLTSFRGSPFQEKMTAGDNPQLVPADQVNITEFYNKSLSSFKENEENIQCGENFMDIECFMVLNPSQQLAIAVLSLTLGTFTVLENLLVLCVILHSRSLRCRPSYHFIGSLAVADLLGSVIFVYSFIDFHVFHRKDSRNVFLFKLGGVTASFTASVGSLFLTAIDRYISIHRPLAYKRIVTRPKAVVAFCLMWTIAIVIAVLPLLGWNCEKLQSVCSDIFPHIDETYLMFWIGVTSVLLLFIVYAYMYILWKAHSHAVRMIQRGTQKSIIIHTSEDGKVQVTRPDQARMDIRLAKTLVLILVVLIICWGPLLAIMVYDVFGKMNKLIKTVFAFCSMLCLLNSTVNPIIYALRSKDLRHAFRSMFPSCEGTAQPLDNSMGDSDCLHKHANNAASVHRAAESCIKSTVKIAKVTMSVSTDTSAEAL
Experiment: cell-based
Conditions: CB1 Receptor Functional Agonist EC50, SK-N-MC cells, forskolin induced β-galactosidase activity
Protocol: The CB1 and CB2 receptors are G-protein coupled receptors (GPCR), which influence cell function via the Gi-protein. […] By monitoring intracellular adenylate cyclase activity, the ability of compounds to act as agonists or inverse agonists can be determined. Test compounds were evaluated in SK-N-MC cells which, using standard transfection procedures, were stably transfected with human cDNA for pcDNA3-CRE β-gal and pcDNA3 CB1 receptor (human) or pcDNA3 CB2 receptor (human). […]
pEC50: −log10 of the molar value.
assay metric: pEC50

compound | pEC50
O=C(N[C@H](CO)c1ccccc1)c1n[nH]c2c1CCCCC2Cc1cccc(Cl)c1 (single isomer, unassigned) [Cpd 231] | < 5.30
COC[C@@H](NC(=O)c1n[nH]c2c1CCCC[C@H]2Cc1cccc(Cl)c1)c1ccccc1 (stereo in doubt) [Cpd 252] | < 5.30

Query: Fill in: pEC50 of CS(=O)(=O)n1nc(C(=O)NCc2ccccc2)c2c1C(Cc1ccc(F)cc1)CCCC2 (stereo not drawn) [Cpd 130] is ___
Reply: > 7.52
